Exercise: for every item that follows, state its recorded protein stability index.
B1: NR2F2 (parent)
chain: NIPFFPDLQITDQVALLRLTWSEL

# Variants of: B1
# assay-procedure: protein stability index of a GFP-peptide fusion (GPS, HEK-293T) (PSI 1-6); higher = more stable;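 also: lentivirally expressed fusions sorted by FACS into six bins by GFP to DsRed ratio, PSI derived from sequencing read proportions per bin multiplied by bin number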
# measurement-conditions: c terminus: a fixed tail appended
Give bare numbers.

Illustrative cases are given below, each with its answer.
In [3]: df
Out[3]:
   variant_key  recorded_value
0          F5K            2.17
1         Q13G            1.29
2          F5G             1.7
3          F4R            1.37
4         V14E             1.9
5          L8W            2.64

For each of the variants below, state protein stability index.
1. L16N
2. L16K
3. Q13L
4. I10G
5. R18S

[2.03, 1.61, 4.11, 1.4, 2.13]
